Please provide measured IC50 for the entries that follow.
# target.or.test.system: UniProtKB O15264
# Sequence (O15264 whole entry): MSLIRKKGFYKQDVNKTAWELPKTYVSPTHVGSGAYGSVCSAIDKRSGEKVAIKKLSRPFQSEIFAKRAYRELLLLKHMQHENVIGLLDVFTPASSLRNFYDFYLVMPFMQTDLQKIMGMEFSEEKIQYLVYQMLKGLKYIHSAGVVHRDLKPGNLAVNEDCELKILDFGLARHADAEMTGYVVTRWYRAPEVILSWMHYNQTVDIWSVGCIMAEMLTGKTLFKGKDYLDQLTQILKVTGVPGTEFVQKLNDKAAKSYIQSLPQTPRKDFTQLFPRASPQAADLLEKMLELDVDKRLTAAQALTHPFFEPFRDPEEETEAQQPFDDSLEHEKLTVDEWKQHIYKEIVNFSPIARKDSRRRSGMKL
# condition: read-out: MAPK13 inhibition

Would you please look over these solved cases?
CCNC(=O)Nc1cc(CCc2cnc(NC(=O)Nc3cc(C(C)(C)C)nn3CC3CC3)s2)ccn1	< 250 nM
Cc1ccc(-n2nc(C(C)(C)C)cc2NC(=O)Nc2ncc(CCc3ccnc(NC(=O)C4CCC4)c3)s2)cc1	< 250 nM
CC(=O)Nc1cc(Oc2ccc(NC(=O)Nc3cc(C(C)(C)C)no3)c(F)c2)ccn1	< 250 nM

Dear colleague, could you please provide IC50 for the compounds listed below?
1. COCC(=O)Nc1cc(Oc2ccc(NC(=O)Nc3cc(C4(C)CSC4)nn3-c3ccc(C)cc3)cc2)ccn1
2. CCOC(=O)Nc1cc(CCc2cnc(NC(=O)Nc3cc(C(C)(C)C)n[nH]3)s2)ccn1
3. CCOC(=O)Nc1cc(CCc2cnc(NC(=O)Nc3cc(C(F)(F)F)ccc3F)s2)ccn1

Reply:
< 250 nM
< 250 nM
> 1000 nM

Task item: Record request: IC50 value, item CC(=O)Nc1cc(CCc2ccc(NC(=O)Nc3cc(C(C)(C)C)on3)c(F)c2)ccn1
Reply: > 1000 nM

Where do the numbers come from? From patent US11407771B2.
